All figures here come from the supplement of paper PMC10724198.

# Tested on: Saccharomyces cerevisiae
# EXPERIMENT_DESCRIPTION: protein stability index of tFT-peptide fusion (C-terminal peptide) (PSI (0-1 scale)); higher = more stable (slower turnover)
# REPORTED_CONDITIONS: genetic background: doa10 deletion; temperature: 30 C
Parameter threshold = 0.3. Response is MET when protein stability index meets or exceeds it, else NOT MET.

> print(dat)
           chain  class.label
 1  YFRKDYRKMAQH      NOT MET
 2  GRLRLGVLCGGV          MET
 3  GLVSCWIDPSMA          MET
 4  IVTSFVSPVYIC      NOT MET
 5  TRSLLFANRCIV      NOT MET
 6  RVCCLSFFFVFL          MET
 7  LWRRSLLLLRCC      NOT MET
 8  PPSPPPPPPSPF          MET
 9  YPGMFLQLVWWI      NOT MET
10  VYFASCVVLLMV      NOT MET

* * *

# Tested on: Saccharomyces cerevisiae
# EXPERIMENT_DESCRIPTION: protein stability index of tFT-peptide fusion (C-terminal peptide) (PSI (0-1 scale)); higher = more stable (slower turnover)
# REPORTED_CONDITIONS: genetic background: doa10 deletion; temperature: 30 C
Use 0.4 as the dividing line for protein stability index, with the line itself on the T side and lower values as F.

> print(dat)
           chain              study.target  class.label
 1  GVAFGLLVWLLG  Saccharomyces cerevisiae            F
 2  KRKKHKRKLVIC  Saccharomyces cerevisiae            F
 3  RVDVSVLWNRRS  Saccharomyces cerevisiae            F
 4  LTIYPLTYCFVS  Saccharomyces cerevisiae            T
 5  CFYSRTIILEHC  Saccharomyces cerevisiae            F
 6  LLLFLHSTLTCR  Saccharomyces cerevisiae            F
 7  RGSLLRWFLAAQ  Saccharomyces cerevisiae            F
 8  VFYWGGVLCGWG  Saccharomyces cerevisiae            F
 9  PRPSPPLPPPSS  Saccharomyces cerevisiae            T
10  SRLLGVKVSLVC  Saccharomyces cerevisiae            F
11  LFRRMWVEIFYV  Saccharomyces cerevisiae            F
12  FIFCLSCGVWGG  Saccharomyces cerevisiae            T
13  LQYSKALAVICG  Saccharomyces cerevisiae            F
14  LPPSPPCQSPAL  Saccharomyces cerevisiae            T
15  FFALFLPLACFC  Saccharomyces cerevisiae            F
16  GFCFVFVFQCFF  Saccharomyces cerevisiae            F
17  GPPVPLSPPLSP  Saccharomyces cerevisiae            F
18  RGWWWFVVVLCR  Saccharomyces cerevisiae            F
19  VVLVGVAVCRLG  Saccharomyces cerevisiae            F
20  VYVYTIRVRWSE  Saccharomyces cerevisiae            F
21  GYLVFTLRWLRG  Saccharomyces cerevisiae            F
22  FFSRSLGAGVAA  Saccharomyces cerevisiae            T
23  VWLFSWSVVGGT  Saccharomyces cerevisiae            F
24  CLLLILCFLCVR  Saccharomyces cerevisiae            F
25  IVFLPVLLWFSV  Saccharomyces cerevisiae            F
26  TLCHLTLICVRE  Saccharomyces cerevisiae            F
27  CFGIFWLFARLK  Saccharomyces cerevisiae            F
28  YTLWFLAWGLVF  Saccharomyces cerevisiae            F
29  QDQWINTSLELS  Saccharomyces cerevisiae            T
30  CIFLLMAILSLA  Saccharomyces cerevisiae            F
31  AASRVIYLLNLF  Saccharomyces cerevisiae            F
32  GLSVFFFVGFIF  Saccharomyces cerevisiae            F

* * *

# System: Saccharomyces cerevisiae
# EXPERIMENT_DESCRIPTION: protein stability index of tFT-peptide fusion (C-terminal peptide) (PSI (0-1 scale)); higher = more stable (slower turnover)
# REPORTED_CONDITIONS: genetic background: das1 deletion; temperature: 30 C
Label TRUE when protein stability index is at or above 0.7; otherwise label FALSE.

> print(dat)
                                   chain              study.target  class.label
1   SDISDLDDLGFL [RPN3 C-terminal 12 aa]  Saccharomyces cerevisiae         TRUE
2   KKDKPEGWDRLP [KTR6 C-terminal 12 aa]  Saccharomyces cerevisiae         TRUE
3  RKVPYKIIPYVY [ERG24 C-terminal 12 aa]  Saccharomyces cerevisiae        FALSE
4   IRRHAYYNQDDD [SLA2 C-terminal 12 aa]  Saccharomyces cerevisiae        FALSE

* * *

# System: Saccharomyces cerevisiae
# EXPERIMENT_DESCRIPTION: protein stability index of tFT-peptide fusion (C-terminal peptide) (PSI (0-1 scale)); higher = more stable (slower turnover)
# REPORTED_CONDITIONS: genetic background: wild type; temperature: 30 C
Label class 1 for high-side protein stability index (at or above 0.7) and class 0 for low-side protein stability index (below it).

> print(dat)
                                      chain  class.label
1  SQSCPFFPLMDD [YDR246W-A C-terminal 12 aa]      class 1
2      AKPKYEKILIDN [RTC2 C-terminal 12 aa]      class 0
3      ATTNISVLQECV [VRL1 C-terminal 12 aa]      class 0
4     NFVMTVFWKIPV [PER33 C-terminal 12 aa]      class 0
5      HLSMVCDLELQL [NGL2 C-terminal 12 aa]      class 0
6     LDTLQTASQYLP [VID22 C-terminal 12 aa]      class 1
7      VCKFASWLFSKI [AMD2 C-terminal 12 aa]      class 0

* * *

# Test system: Saccharomyces cerevisiae
# EXPERIMENT_DESCRIPTION: protein stability index of tFT-peptide fusion (C-terminal peptide) (PSI (0-1 scale)); higher = more stable (slower turnover)
# REPORTED_CONDITIONS: genetic background: das1 deletion; temperature: 30 C
Below, each of the sequences is paired with its reported protein stability index value.
EXPERIMENTAL_ENDPOINT: protein stability index

> print(dat)
           chain    experimental.endpoint  reading
 1  LLPSNFLLLVGV  protein stability index    0.217
 2  SLIDPLGNLFNS  protein stability index    0.682
 3  VRDQGWILNMLL  protein stability index    0.651
 4  VFCFCRFHFFCA  protein stability index    0.496
 5  RRSRLYKKAGLM  protein stability index    0.643
 6  RLLLLLTCIIYI  protein stability index    0.194
 7  SGPCSPRNLRRL  protein stability index    0.621
 8  PDKRNHLIKLLN  protein stability index    0.648
 9  VVRVSFSFCLSC  protein stability index     0.48
10  ASVSVWCVSVVV  protein stability index    0.103
11  SPRSIALLHLFS  protein stability index    0.655
12  VCFWCLYVMFSL  protein stability index    0.383
13  SGPTIRRRLFVH  protein stability index    0.621
14  YPGMFLQLVWWI  protein stability index    0.433
15  PTFSPSLPPPRS  protein stability index    0.678
16  GSLHVISVVGML  protein stability index    0.592
17  YLCCFSVAFFLG  protein stability index    0.206
18  FLVFPLLIQFFL  protein stability index    0.356
19  YYLHFRFFIYVF  protein stability index    0.108

* * *

Parameter: protein stability index. Scope: all listed entries.
# System: Saccharomyces cerevisiae
# EXPERIMENT_DESCRIPTION: protein stability index of tFT-peptide fusion (C-terminal peptide) (PSI (0-1 scale)); higher = more stable (slower turnover)
# REPORTED_CONDITIONS: genetic background: cdc34-1; temperature: 37 C
EXPERIMENTAL_ENDPOINT: protein stability index

> print(dat)
           chain              study.target  reading
 1  FLSVGFSCSFVC  Saccharomyces cerevisiae    0.674
 2  CGCLPYIGTKLC  Saccharomyces cerevisiae    0.463
 3  CSFPTFRSLLLL  Saccharomyces cerevisiae    0.532
 4  DECQLCNRDWRG  Saccharomyces cerevisiae    0.689
 5  WVVVKITAHTAT  Saccharomyces cerevisiae    0.323
 6  ESVPLLIVLHLV  Saccharomyces cerevisiae    0.304
 7  SFLACFVLAFFC  Saccharomyces cerevisiae    0.406
 8  LPPYPPPVPILI  Saccharomyces cerevisiae    0.449
 9  GLGWLLFVVERV  Saccharomyces cerevisiae    0.457
10  FFCCFVFVLGFC  Saccharomyces cerevisiae    0.328
